Reported values of Inhibition for individual entries
Test system: Escherichia coli
details: Concentration 32 ug.mL-1;; ASSAY_TEST Inhibition of Bacterial Growth; detection method Absorption (OD600); MEDIA CAMHB; plate type 384well; NBS; CORNING #3640; time 18 hr
Description: Antibacterial activity against Escherichia coli ATCC 25922 (CO-ADD:GN_001); MIC in CAMBH media using NBS plates, by OD(600)
Results with a measured potency or affinity are listed apart.

- molecule: "COc1ccc(NC(=O)c2ccc3nn(CC(=O)N4CCN(c5ccccc5)CC4)c(=O)n3c2)cc1"
  target_or_test_system: "Escherichia coli"
  Inhibition [%]: -9.19
- molecule: "COc1ccc(NC(=O)Cn2nc3c(Oc4ccccc4)nccn3c2=O)cc1"
  target_or_test_system: "Escherichia coli"
  Inhibition [%]: -1.88
- molecule: "Cc1ccc(-n2ccn3c(SCC#N)nnc3c2=O)cc1C"
  target_or_test_system: "Escherichia coli"
  Inhibition [%]: -4.03
- molecule: "Cc1ccc(Oc2nccn3c(=O)n(CC(=O)Nc4ccc(Cl)cc4F)nc23)cc1"
  target_or_test_system: "Escherichia coli"
  Inhibition [%]: -5.2
- molecule: "COc1ccccc1Cn1c(=O)c2sccc2n2c(=O)n(Cc3cccc(Br)c3)nc12"
  target_or_test_system: "Escherichia coli"
  Inhibition [%]: -1.02
- molecule: "COc1cccc(-n2ccn3c(SCC(=O)Nc4cccc(F)c4)nnc3c2=O)c1"
  target_or_test_system: "Escherichia coli"
  Inhibition [%]: -18.41
- molecule: "CCCCc1ccc(NC(=O)Cn2nc3c(N4CCSCC4)nc4ccccc4n3c2=O)cc1"
  target_or_test_system: "Escherichia coli"
  Inhibition [%]: 1.07
- molecule: "COc1ccc(CNC(=O)Cn2nc3c(N4CC(C)CC(C)C4)nccn3c2=O)cc1 (stereo not given)"
  target_or_test_system: "Escherichia coli"
  Inhibition [%]: -5.82
- molecule: "COc1ccc(NC(=O)Cn2nc3ccc(-c4ccc(Cl)cc4)nn3c2=O)cc1"
  target_or_test_system: "Escherichia coli"
  Inhibition [%]: -4.11
- molecule: "CCc1nnc2c(S(=O)(=O)N(Cc3cccc(OC)c3)c3ccc(F)cc3)cccn12"
  target_or_test_system: "Escherichia coli"
  Inhibition [%]: -8.61
- molecule: "CCc1ccccc1NC(=O)Cn1nc2cc(C)nc(Nc3ccc(F)c(C)c3)n2c1=O"
  target_or_test_system: "Escherichia coli"
  Inhibition [%]: -1.7
- molecule: "COc1ccc(N(Cc2cc(F)cc(F)c2)S(=O)(=O)c2ccc3nnc(C)n3c2)cc1"
  target_or_test_system: "Escherichia coli"
  Inhibition [%]: -2.53
- molecule: "Cc1ccc(-c2ccc3nn(CC(=O)Nc4ccc(C(C)C)cc4)c(=O)n3n2)cc1C"
  target_or_test_system: "Escherichia coli"
  Inhibition [%]: -13.87
- molecule: "COc1ccc(NC(=O)Cn2nc3c(N4CCCC4)nccn3c2=O)cc1Cl"
  target_or_test_system: "Escherichia coli"
  Inhibition [%]: -0.96
- molecule: "Cc1ccc(Sc2ccc3nn(CC(=O)Nc4ccc(Br)c(C)c4)c(=O)n3n2)cc1"
  target_or_test_system: "Escherichia coli"
  Inhibition [%]: -6
- molecule: "CCCCc1ccc(NC(=O)Cn2c(=O)c3nnc(C(C)C)n3c3ccccc32)cc1"
  target_or_test_system: "Escherichia coli"
  Inhibition [%]: 1.92
- molecule: "Cc1c(Cl)cccc1-n1ccn2c(=O)n(Cc3ccc(Cl)cc3)nc2c1=O"
  target_or_test_system: "Escherichia coli"
  Inhibition [%]: -7.56
- molecule: "COc1ccc(NC(=O)Cn2nc3c(SC4CCCCC4)nccn3c2=O)cc1Cl"
  target_or_test_system: "Escherichia coli"
  Inhibition [%]: -6.21
- molecule: "O=C(CSc1nnc2c(=O)n(Cc3ccc(F)cc3)ccn12)NC1CCCC1"
  target_or_test_system: "Escherichia coli"
  Inhibition [%]: -4.53
- molecule: "CC(C)c1ccc(NC(=O)Cn2nc3c(N4CCCC4)nccn3c2=O)cc1"
  target_or_test_system: "Escherichia coli"
  Inhibition [%]: -0.46
- molecule: "COc1ccc(-c2cc3c4nn(CC(=O)Nc5cc(OC)cc(OC)c5)c(=O)n4ccn3n2)cc1"
  target_or_test_system: "Escherichia coli"
  Inhibition [%]: -10.82
- molecule: "COc1ccc(NC(=O)Cn2nc3nc(Nc4ccc(F)cc4)ccn3c2=O)cc1Cl"
  target_or_test_system: "Escherichia coli"
  Inhibition [%]: -9.75
- molecule: "Cc1ccc(Sc2nccn3c(=O)n(CC(=O)Nc4cccc(Br)c4)nc23)c(C)c1"
  target_or_test_system: "Escherichia coli"
  Inhibition [%]: -13.08
- molecule: "CCCNC(=O)CSc1nnc2c(=O)n(-c3ccc(F)cc3)ccn12"
  target_or_test_system: "Escherichia coli"
  Inhibition [%]: -1
- molecule: "O=C(NCc1ccccc1)c1ccc2nn(CC(=O)N3CCN(c4ccc(F)cc4)CC3)c(=O)n2c1"
  target_or_test_system: "Escherichia coli"
  Inhibition [%]: -2.47
- molecule: "Cc1ccc(Sc2nccn3c(=O)n(CC(=O)Nc4ccccc4C)nc23)c(C)c1"
  target_or_test_system: "Escherichia coli"
  Inhibition [%]: -8.99
- molecule: "Cc1ccc(CN(c2ccc(C(C)C)cc2)S(=O)(=O)c2cccn3c(C)nnc23)cc1"
  target_or_test_system: "Escherichia coli"
  Inhibition [%]: -8.61
- molecule: "CCc1nnc2c(SCC(=O)Nc3ccc(C(C)=O)cc3)nc3ccccc3n12"
  target_or_test_system: "Escherichia coli"
  Inhibition [%]: 4.62
- molecule: "Cc1ccc(NC(=O)Cn2nc3ccc(SC(C)C)nn3c2=O)cc1F"
  target_or_test_system: "Escherichia coli"
  Inhibition [%]: -1.63
- molecule: "COc1ccccc1-n1ccn2c(SCc3cccc(F)c3)nnc2c1=O"
  target_or_test_system: "Escherichia coli"
  Inhibition [%]: -7.27
- molecule: "N#Cc1cccc(NC(=O)CSc2nnc3c4cc(-c5ccc(F)cc5)nn4ccn23)c1"
  target_or_test_system: "Escherichia coli"
  Inhibition [%]: -2.69
- molecule: "O=C(Cn1nc2ccc(Sc3cccc(F)c3)nn2c1=O)Nc1ccc(Cl)cc1"
  target_or_test_system: "Escherichia coli"
  Inhibition [%]: -8.49
- molecule: "O=c1c2nnc(-c3ccc([N+](=O)[O-])cc3)n2ccn1-c1ccc(F)c(F)c1"
  target_or_test_system: "Escherichia coli"
  Inhibition [%]: -1.2
- molecule: "Cc1cc(C)c(NC(=O)Cn2nc3ccc(SC4CCCCC4)nn3c2=O)c(C)c1"
  target_or_test_system: "Escherichia coli"
  Inhibition [%]: -6.45
- molecule: "Cc1ccc(NC(=O)Cn2nc3c(Sc4ccccc4)nccn3c2=O)c(C)c1"
  target_or_test_system: "Escherichia coli"
  Inhibition [%]: -4.74
- molecule: "O=C(Cn1nc2c(Sc3cccc(F)c3)nccn2c1=O)Nc1cccc(C(F)(F)F)c1"
  target_or_test_system: "Escherichia coli"
  Inhibition [%]: -0.7
- molecule: "Cc1ccc(-c2cc3c4nn(CC(=O)Nc5ccccc5F)c(=O)n4ccn3n2)cc1C"
  target_or_test_system: "Escherichia coli"
  Inhibition [%]: -9.57
- molecule: "CCOC(=O)c1ccc(NC(=O)Cn2nc3c4cc(-c5ccc(C)cc5)nn4ccn3c2=O)cc1"
  target_or_test_system: "Escherichia coli"
  Inhibition [%]: -8.93
- molecule: "Cc1ccc(-n2ccn3c(=O)n(Cc4cccc(F)c4)nc3c2=O)cc1C"
  target_or_test_system: "Escherichia coli"
  Inhibition [%]: -8.8
- molecule: "Cc1ccccc1N1CCN(c2nccn3c(=O)n(CC(=O)NCc4ccc(Cl)cc4)nc23)CC1"
  target_or_test_system: "Escherichia coli"
  Inhibition [%]: -3.79
